System: S. pneum AB 34
assay.procedure: MIC, agar incorporation method
experimental.context: agar incorporation
compounds and their reported MIC S. pneum AB 34

{"compound": "CC(=O)NC[C@H]1CN(c2ccc(N3CCN(Cc4cc(Br)cs4)CC3)c(F)c2)C(=O)O1", "MIC S. pneum AB 34": "4 µg/mL"}
{"compound": "CC(=O)NC[C@H]1CN(c2ccc(N3CCN(Cc4ccc([N+](=O)[O-])s4)CC3)c(F)c2)C(=O)O1", "MIC S. pneum AB 34": "8 µg/mL"}
{"compound": "CC(=O)NC[C@H]1CN(c2ccc(N3CC4C(CN(C)Cc5ccc([N+](=O)[O-])s5)C4C3)c(F)c2)C(=O)O1 (some centres unmarked)", "MIC S. pneum AB 34": "0.5 µg/mL"}
{"compound": "CC(=O)NC[C@H]1CN(c2ccc(N3CCN(Cc4cccn4C)CC3)c(F)c2)C(=O)O1", "MIC S. pneum AB 34": "1 µg/mL"}
{"compound": "CC(=O)NC[C@H]1CN(c2ccc(N3CCN(Cc4ccc([N+](=O)[O-])o4)CC3)c(F)c2)C(=O)O1", "MIC S. pneum AB 34": "2 µg/mL"}
